Data credit: paper PMC10397247

Molecular target: T1, 4H3817-bH
T1 chain: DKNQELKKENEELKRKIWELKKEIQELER
Assay: two-hybrid library CCNG1;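 further: natural log of median RNA to DNA barcode read ratio; higher means stronger binding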

>  <binder>
DKNQELKKENEELKRKIWELKKEIQELER [4H3817-bH]

>  <interaction score>
0.775

$$$$
>  <binder>
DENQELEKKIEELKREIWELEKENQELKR [4H1348-bH]

>  <interaction score>
0.205

$$$$
>  <binder>
DKNQELKKEIEELERENWELKKKIQELER [4H3613-bH]

>  <interaction score>
-0.0066

$$$$
>  <binder>
DKNQELKKEIEELERKIWELKKENQELKR [4H3628-bH]

>  <interaction score>
0.965

$$$$
>  <binder>
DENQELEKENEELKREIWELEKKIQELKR [4H1222-bH]

>  <interaction score>
1.69

$$$$
>  <binder>
DENQELEKKNEELERKIWELKKEIQELER [4H1449-bH]

>  <interaction score>
-0.644

$$$$
>  <binder>
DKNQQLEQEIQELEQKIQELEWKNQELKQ [4H3112-bN]

>  <interaction score>
-0.521

$$$$
>  <binder>
DKNQELKKEIEELERKIWELKKKNQELER [4H3631-bH]

>  <interaction score>
0.637

$$$$
>  <binder>
DKNQELEKEIEELERKNWELKKEIQELER [4H3129-bH]

>  <interaction score>
-0.197

$$$$
>  <binder>
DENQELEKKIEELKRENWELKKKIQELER [4H1373-bH]

>  <interaction score>
-0.502

$$$$
>  <binder>
DENQELEKKIEELERKNWELKKEIQELKR [4H1338-bH]

>  <interaction score>
-0.423

$$$$
